- tgt: NPR-B (Homo sapiens)
- Sequence (P20594 23-1047): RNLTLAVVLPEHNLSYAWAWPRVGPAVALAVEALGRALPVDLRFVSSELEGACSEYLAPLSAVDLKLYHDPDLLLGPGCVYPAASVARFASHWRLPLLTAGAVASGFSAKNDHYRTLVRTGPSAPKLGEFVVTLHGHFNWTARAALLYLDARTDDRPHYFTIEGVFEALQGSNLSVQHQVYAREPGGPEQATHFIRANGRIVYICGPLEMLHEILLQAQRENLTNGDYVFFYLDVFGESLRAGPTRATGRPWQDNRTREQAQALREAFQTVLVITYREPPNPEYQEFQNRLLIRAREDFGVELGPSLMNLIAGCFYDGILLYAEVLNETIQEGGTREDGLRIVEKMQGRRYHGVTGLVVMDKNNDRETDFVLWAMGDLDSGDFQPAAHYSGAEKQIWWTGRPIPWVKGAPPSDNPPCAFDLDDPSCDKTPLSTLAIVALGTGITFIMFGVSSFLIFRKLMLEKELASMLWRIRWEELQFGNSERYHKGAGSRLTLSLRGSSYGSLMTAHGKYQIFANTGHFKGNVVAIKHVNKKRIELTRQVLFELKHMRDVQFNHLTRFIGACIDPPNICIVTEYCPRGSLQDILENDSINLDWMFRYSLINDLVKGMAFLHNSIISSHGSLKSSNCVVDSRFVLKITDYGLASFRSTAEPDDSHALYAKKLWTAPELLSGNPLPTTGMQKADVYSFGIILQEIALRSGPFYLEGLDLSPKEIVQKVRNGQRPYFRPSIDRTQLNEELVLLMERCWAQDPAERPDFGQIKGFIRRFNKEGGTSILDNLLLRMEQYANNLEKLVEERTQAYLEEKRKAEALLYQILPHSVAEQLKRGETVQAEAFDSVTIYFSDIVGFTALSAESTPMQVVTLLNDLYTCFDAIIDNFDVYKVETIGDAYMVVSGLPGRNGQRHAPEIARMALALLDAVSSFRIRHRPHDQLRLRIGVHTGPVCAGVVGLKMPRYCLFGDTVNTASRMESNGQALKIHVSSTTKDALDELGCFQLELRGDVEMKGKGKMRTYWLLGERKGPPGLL
- assay-details: Whole cell guanylyl cyclase (cGMP) assay, NPR-B
- Format: cell-based
- Design: expressed in transfected cells
Bridge positions count the residues as written; N and C are the ends. Ends that are not written are not given here.
Binary call on EC50 Ratio versus CNP22 with cut-off 70: strictly below means Y, and equality or higher means N.

> print(dat)
                              sequence.input  assigned.label
 1  EEEEEESGGGGSGGGKGANKKGLSKGCFGLKLDRIGSMSGLGC (disulfide 27-43) [C4(E6) [BC4]]               Y
 2  EEEEEESGGGGSGGGQGANQQGLSKGCFGLKLDRIGSMSGLGC (disulfide 27-43) [C5(E6) [BC5]]               N
 3  EEEEEEHKLRGQEHPNARKYKGANKKGLSKGCFGLKLDRIGSMSGLGC (disulfide 32-48) [KB1(E6)]               Y
 4  EEEEEESGGGGSGGGKGANQQGLSKGCFGLKLDRIGSMSGLGC (disulfide 27-43) [C9(E6) [BC9]]               N
 5  EEEEEESGGGGSGGGQGANKKGLSKGCFGLKLDRIGSMSGLGC (disulfide 27-43) [C8(E6) [BC8]]               Y
 6  EEEEEESGGGGSGGGKGANKQGLSKGCFGLKLDRIGSMSGLGC (disulfide 27-43) [C6(E6) [BC6]]               Y
 7  EEEEEESGGGGSGGGQGANKQGLSKGCFGLKLDRIGSMSGLGC (disulfide 27-43) [C11(E6) [BC11]]               Y
 8  EEEEEEASTSPANPQPAASSPGLSKGCFGLKLDRIGSMSGLGC (disulfide 27-43) [C2(E6) [BC2]]               Y
 9  GLSKGCFGLKLDRIGSMSGLGCGGGGSGGGGSGGGGDDDDDD (disulfide 6-22) [CNP-14AAlinker-D6 [C4]]               N
10  EEEEEESGGGGSGGGQGANQKGLSKGCFGLKLDRIGSMSGLGC (disulfide 27-43) [C10(E6) [BC10]]               N
11  EEEEEESGGGGSGGGGSGGGGGLSKGCFGLKLDRIGSMSGLGC (disulfide 27-43) [C1(E6) [BC1]]               N
12  EEEEEEHGPQGQEHPNARKYKGANKKGLSKGCFGLKLDRIGSMSGLGC (disulfide 32-48) [KA1(E6)]               Y
13  EEEEEEPSSAAPQPNAPSTSAGLSKGCFGLKLDRIGSMSGLGC (disulfide 27-43) [C3(E6) [BC3]]               Y

---

Overview of reported Rescue Ratio versus CNP22 across a group of sequences:
- tgt: NPR-B (Homo sapiens)
- assay-details: Whole cell guanylyl cyclase (cGMP) assay, NPR-B
- Format: cell-based
- Parameters: expressed in transfected cells
Bridge positions count the residues as written; N and C are the ends. Ends that are not written are not given here.
observed-property: Rescue Ratio versus CNP22

> print(dat)
                              sequence.input                   tgt          observed.property    result
 1  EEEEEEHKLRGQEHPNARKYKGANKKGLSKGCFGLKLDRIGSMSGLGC (disulfide 32-48) [KB1(E6)]  NPR-B (Homo sapiens)  Rescue Ratio versus CNP22   5.6-5.6
 2  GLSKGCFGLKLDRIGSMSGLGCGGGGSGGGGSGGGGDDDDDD (disulfide 6-22) [CNP-14AAlinker-D6 [C4]]  NPR-B (Homo sapiens)  Rescue Ratio versus CNP22   375-714
 3  EEEEEESGGGGSGGGQGANQKGLSKGCFGLKLDRIGSMSGLGC (disulfide 27-43) [C10(E6) [BC10]]  NPR-B (Homo sapiens)  Rescue Ratio versus CNP22     89-90
 4  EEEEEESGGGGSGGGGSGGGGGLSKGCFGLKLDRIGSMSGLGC (disulfide 27-43) [C1(E6) [BC1]]  NPR-B (Homo sapiens)  Rescue Ratio versus CNP22   120-124
 5  EEEEEEASTSPANPQPAASSPGLSKGCFGLKLDRIGSMSGLGC (disulfide 27-43) [C2(E6) [BC2]]  NPR-B (Homo sapiens)  Rescue Ratio versus CNP22  177-1429
 6  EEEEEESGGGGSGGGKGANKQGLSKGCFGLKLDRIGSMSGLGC (disulfide 27-43) [C6(E6) [BC6]]  NPR-B (Homo sapiens)  Rescue Ratio versus CNP22     55-70
 7  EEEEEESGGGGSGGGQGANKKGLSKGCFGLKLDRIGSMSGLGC (disulfide 27-43) [C8(E6) [BC8]]  NPR-B (Homo sapiens)  Rescue Ratio versus CNP22     48-56
 8  EEEEEEPSSAAPQPNAPSTSAGLSKGCFGLKLDRIGSMSGLGC (disulfide 27-43) [C3(E6) [BC3]]  NPR-B (Homo sapiens)  Rescue Ratio versus CNP22   117-281
 9  EEEEEESGGGGSGGGKGANQKGLSKGCFGLKLDRIGSMSGLGC (disulfide 27-43) [C7(E6) [BC7]]  NPR-B (Homo sapiens)  Rescue Ratio versus CNP22     74-85
10  EEEEEESGGGGSGGGKGANQQGLSKGCFGLKLDRIGSMSGLGC (disulfide 27-43) [C9(E6) [BC9]]  NPR-B (Homo sapiens)  Rescue Ratio versus CNP22     76-97
